Give IC90 for every item shown.
system: Mycobacterium tuberculosis; test: Antitubercular activity against Mycobacterium tuberculosis H37Rv after 4 days by microplate alamar blue assay; assay type: functional; details: 96 h

In the examples that follow, each entry is paired with its recorded IC90.
CN1C(=O)/C(=N\NC(=S)Nc2ccc([N+](=O)[O-])cc2)c2cc(OC(F)(F)F)ccc21 :: > 100 µg/mL
Cc1ccc(NC(=S)N/N=C2\C(=O)N(CN3CCOCC3)c3ccc(OC(F)(F)F)cc32)cc1 :: > 100 µg/mL
O=C1/C(=N\NC(=S)Nc2ccc(Cl)cc2)c2cc(OC(F)(F)F)ccc2N1CN1CCOCC1 :: 3.04 µg/mL
Cc1ccc2c(c1)/C(=N/NC(=S)Nc1ccccc1)C(=O)N2 :: 1.43 µg/mL

Each molecule below has a recorded value; state its IC90.
1. O=C1/C(=N\NC(=S)Nc2ccc(F)cc2)c2cc(OC(F)(F)F)ccc2N1CN1CCOCC1
2. CNC(=S)N/N=C1\C(=O)N(CN2CCOCC2)c2ccc(OC(F)(F)F)cc21
3. Cc1ccc2c(c1)/C(=N/NC(=S)Nc1ccc(F)cc1)C(=O)N2C
4. CN1C(=O)/C(=N\NC(=S)Nc2ccc(F)cc2)c2cc(OC(F)(F)F)ccc21
5. O=C1Nc2ccc(OC(F)(F)F)cc2/C1=N/NC(=S)NCc1ccccc1

3.06 µg/mL
> 100 µg/mL
> 100 µg/mL
> 100 µg/mL
> 100 µg/mL
